Origin of measurements: patent US20250129027A1

ASSAY SYSTEM: human recombinant FAAH (Homo sapiens (Human))
Sequence (O00519 whole entry): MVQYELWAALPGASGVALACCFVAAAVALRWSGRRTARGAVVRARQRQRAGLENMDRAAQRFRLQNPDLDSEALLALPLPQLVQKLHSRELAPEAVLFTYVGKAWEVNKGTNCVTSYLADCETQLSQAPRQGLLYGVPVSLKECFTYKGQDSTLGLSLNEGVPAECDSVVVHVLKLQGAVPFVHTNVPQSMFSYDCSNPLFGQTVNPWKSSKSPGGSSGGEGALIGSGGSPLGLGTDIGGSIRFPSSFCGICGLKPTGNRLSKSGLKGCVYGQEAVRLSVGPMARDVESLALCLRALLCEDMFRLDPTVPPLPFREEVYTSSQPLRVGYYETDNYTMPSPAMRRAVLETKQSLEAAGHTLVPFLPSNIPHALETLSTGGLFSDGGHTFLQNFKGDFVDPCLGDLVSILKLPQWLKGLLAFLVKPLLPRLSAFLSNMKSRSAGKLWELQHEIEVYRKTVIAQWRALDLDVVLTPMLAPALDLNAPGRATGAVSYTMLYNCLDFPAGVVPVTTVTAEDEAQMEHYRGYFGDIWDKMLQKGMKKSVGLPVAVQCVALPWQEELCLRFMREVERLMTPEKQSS
METHOD NOTES: In vitro inhibition of FAAH activity (fluorescent inhibitor screening kit, AMC arachidonoyl amide)
Type: biochemical
CONDITION LABEL: human recombinant FAAH; read-out: Inhibition on FAAH activity (IC50)
pIC50: −log10 of the molar value.
Would you mind telling me the reported pIC50 of each entry?

Study these solved cases before continuing.
O=C(NCc1ccc2ccccc2c1)Oc1cccc(-c2cncc(-c3ncn[nH]3)c2)c1 [Example 222] | 7.00 to 8.00
COC(=O)c1cncc(-c2cccc(OC(=O)NC3CCCC3)c2)c1 [Example 11] | 7.00 to 8.00
CCCCCCCCNC(=O)Oc1cccc(-c2cncc(-c3nccs3)c2)c1 [Example 115] | 8.00 to 9.00

Below: the item to evaluate.
Would you mind telling me what pIC50 value was observed for O=C(NC1CCCCCC1)Oc1ccc(OC(F)(F)F)c(-c2cncc(-c3nnco3)c2)c1 [Example 202] ? 6.00 to 7.00

====

Provide the reported pIC50 of each item.
ASSAY SYSTEM: human recombinant MAGL (Homo sapiens (Human))
Sequence (Q99685 whole entry): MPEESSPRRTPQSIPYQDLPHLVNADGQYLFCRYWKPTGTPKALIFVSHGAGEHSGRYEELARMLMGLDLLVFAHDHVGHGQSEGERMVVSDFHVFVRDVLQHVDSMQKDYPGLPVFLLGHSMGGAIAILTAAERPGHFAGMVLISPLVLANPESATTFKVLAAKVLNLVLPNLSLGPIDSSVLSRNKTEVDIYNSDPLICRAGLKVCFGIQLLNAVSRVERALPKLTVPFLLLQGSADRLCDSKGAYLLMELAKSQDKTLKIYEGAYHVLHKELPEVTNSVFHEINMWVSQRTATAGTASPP
METHOD NOTES: In vitro inhibition of MAGL activity (inhibitor screening kit, 4-nitrophenylacetate)
CONDITION LABEL: human recombinant MAGL
pIC50: −log10 of the molar value.

CCCCCCCCNC(=O)Oc1cccc(-c2cncc(-c3nnco3)n2)c1 [Example 263] | 5.00 to 6.00
O=C(Oc1cccc(-c2cncc(-c3nnco3)c2)c1)N1C2CCCC1CC2 [Example 150] | < 5.00

What value of pIC50 has been reported for the following compound? CCCCCCCCNC(=O)Oc1ccc(OC)c(-c2cncc(-c3ncn[nH]3)c2)c1 [Example 232] ~5.00

====

Exercise: for every item that follows, state its recorded IC50.
ASSAY SYSTEM: human recombinant MAGL (Homo sapiens (Human))
METHOD NOTES: In vitro inhibition of MAGL activity (inhibitor screening kit, 4-nitrophenylacetate)
CONDITION LABEL: human recombinant MAGL

CCCCCCCCCCCCCCNC(=O)Oc1cccc(-c2cncc(C(=O)OCC)c2)c1 [Example 4] | 1 to 10 µM

Items follow; give IC50 for each.
1. O=C(NC1CCCCCC1)Oc1cccc(-c2cncc(-c3ccc[nH]3)c2)c1 [Example 40]
2. COc1ccc(OC(=O)NC2CCCC2)cc1-c1cncc(-c2ccc[nH]2)c1 [Example 44]
3. CCCCCNC(=O)Oc1cccc(-c2cncc(C=O)c2)c1 [Example 14]
4. COc1ccc(OC(=O)NC2CCCC2)cc1-c1cncc(-c2nnn[nH]2)c1 [Example 253]
5. O=C(NC1CCCC1)Oc1cccc(-c2cncc(-c3nnco3)c2)c1 [Example 138]
6. O=C(NC1CCCCCC1)Oc1cccc(-c2cncc(-c3nncs3)c2)c1 [Example 212]
7. CCCCCCCCNC(=O)Oc1cccc(-c2cncc(C=O)c2)c1 [Example 16]

~10 µM
> 10 µM
10 to 50 µM
> 10 µM
> 50 µM
> 10 µM
1 to 10 µM

Request body: readout IC50, system human recombinant MAGL (Homo sapiens (Human)), query O=C(NC1CCCCC1)Oc1ccc(O)c(-c2cncc(-c3nnn[nH]3)c2)c1 [Example 248] . Return the value. > 10 µM

====

ASSAY SYSTEM: human recombinant MAGL (Homo sapiens (Human))
METHOD NOTES: In vitro inhibition of MAGL activity (inhibitor screening kit, 4-nitrophenylacetate)
CONDITION LABEL: human recombinant MAGL
MEASURE: IC50

// known answers, use as guide
O=C(NC1CCCCCC1)Oc1cccc(-c2cncc(-c3ncno3)c2)c1 [Example 206] | > 10 µM
O=C(NC1CCCC1)Oc1cccc(-c2cncc(-c3cccs3)c2)c1 [Example 62] | ~10 µM
O=C(NCC1CCCCC1)Oc1ccc(O)c(-c2cncc(-c3ncn[nH]3)c2)c1 [Example 227] | > 10 µM

Go through the items and report each one's IC50.
1. O=C(NC1CCCCCC1)Oc1ccc(F)c(-c2cncc(-c3ncco3)c2)c1 [Example 87]
2. O=Cc1cncc(-c2cccc(OC(=O)NC3CCCCCC3)c2)c1 [Example 20]
3. CCCCCCCCNC(=O)Oc1cccc(-c2cncc(C(=O)NN)c2)c1 [Example 25]
4. CCCCCCCCNC(=O)Oc1cccc(-c2cncc(-c3ccno3)c2)c1 [Example 105]
5. COc1ccc(OC(=O)NC2CCCC2)cc1-c1cncc(-c2nccs2)c1 [Example 124]

> 10 µM
> 10 µM
> 10 µM
> 10 µM
> 10 µM

For each listed entry, give its IC50.
1. O=C(NCc1ccccc1)Oc1cccc(-c2cncc(-c3ccco3)c2)c1 [Example 49]
2. COc1ccc(OC(=O)NCC2CCCCC2)cc1-c1cncc(-c2nccs2)c1 [Example 122]
3. O=Cc1cncc(-c2cccc(OC(=O)NCC3CCCCC3)c2)c1 [Example 17]
4. O=C(NC1CCCCC1)Oc1cccc(-c2cncc(-c3ncco3)c2)c1 [Example 76]
5. O=C(NC1CCCCCC1)Oc1cccc(-c2cncc(-c3ccno3)c2)c1 [Example 108]
6. O=C(NCc1ccccc1)Oc1ccc(O)c(-c2cncc(-c3nnn[nH]3)c2)c1 [Example 246]

1: > 10 µM; 2: ~10 µM; 3: > 10 µM; 4: 1 to 10 µM; 5: > 1 µM; 6: > 10 µM
